Attribution: patent US9725414B2

# Test system: Alternaria solani
# measurement_protocol: Example C: in vivo preventive test on Alternaria solani (tomato)
# assay_setup: 500 ppm of active ingredient, evaluated 7 days after inoculation

# molecule, Efficacy
measured = [
    ("Cn1nc(C(F)F)c(C(=O)NC2CCC3CCCCC3C2)c1F (mixture of isomers)", "80%"),
    ("CC1C(CNC(=S)c2c(C(F)F)nn(C)c2F)CC2CC1C2(C)C (stereo not drawn)", "90%"),
    ("Cc1nn(C)c(F)c1C(=S)N(C1CC1)C(C)C1CC2CCC1C2 (stereo not drawn)", "95%"),
    ("Cn1nc(C(F)F)c(C(=S)NC2CCCC3CCCCC32)c1F (stereo not drawn)", "70%"),
    ("Cn1nc(C(F)F)c(C(=O)N(C2CC2)C2CCC3CCCC3C2)c1F (mixture of isomers)", "100%"),
    ("Cn1cc(C(=O)N(C2CC2)C2CCC3CCCCC3C2)c(C(F)F)n1 (mixture of isomers)", "95%"),
    ("Cn1nc(C(F)F)c(C(=O)NCC23CC4CC(CC(C4)C2)C3)c1F", "95%"),
    ("Cc1nn(C)c(F)c1C(=O)NC1CCCC2C1C(C)CC2(C)C (stereo not drawn)", "89%"),
    ("CC(NC(=O)c1c(C(F)F)nn(C)c1Cl)C12CC3CC(CC(C3)C1)C2 (stereo not drawn)", "100%"),
    ("Cn1nc(C(F)F)c(C(=O)NCC2CCC3CC2C3(C)C)c1F (stereo not drawn)", "95%"),
    ("Cn1nc(C(F)F)c(C(=O)N(C2CC2)C2CCC3CCCCC3C2)c1Cl (mixture of isomers)", "95%"),
    ("Cc1nn(C)c(F)c1C(=O)N(C1CC1)C(C)C12CC3CC(CC(C3)C1)C2 (stereo not drawn)", "100%"),
    ("CC1CC(C)(C)C2CCCC(NC(=O)c3c(C(F)F)nn(C)c3F)C12 (stereo not drawn)", "100%"),
    ("CC1C(CNC(=O)c2c(C(F)F)nn(C)c2Cl)CC2CC1C2(C)C (stereo not drawn)", "100%"),
    ("CC1C(CN(C(=O)c2c(C(F)F)nn(C)c2Cl)C2CC2)CC2CC1C2(C)C (stereo not drawn)", "94%"),
    ("CC1C(CNC(=O)c2c(C(F)F)nn(C)c2F)CC2CC1C2(C)C (stereo not drawn)", "100%"),
    ("Cn1nc(C(F)F)c(C(=O)NC2CCCC3CCCCC32)c1F (stereo not drawn)", "100%"),
    ("CC1C(CN(C(=O)c2cn(C)nc2C(F)F)C2CC2)CC2CC1C2(C)C (stereo not drawn)", "100%"),
]

###

Collected logP values appear next to each entry.
# measurement_protocol: log P by HPLC on reversed-phase column (C 18), EEC Directive 79831 Annex V.A8
# Format: physicochemical

# compound, logP
measured = [
    ("Cn1nc(C(F)F)c(C(=O)N(CC23CC4CC(CC(C4)C2)C3)C2CC2)c1Cl", 4.68),
    ("CC(C)N(C(=O)c1c(C(F)F)nn(C)c1Cl)C1CCCC2CCCCC21 (stereo not drawn)", 4.83),
    ("Cn1cc(C(=O)NC2C3(C)CCC(C3)C2(C)C)c(C(F)F)n1 (stereo not drawn)", 3.35),
    ("CC1C(CN(C(=O)c2c(C(F)F)nn(C)c2Cl)C2CC2)CC2CC1C2(C)C (stereo not drawn)", 4.82),
    ("Cn1nc(C(F)F)c(C(=O)NC23CC4CC(CC(C4)C2)C3)c1F", 3.57),
    ("CC(NC(=O)c1c(C(F)F)nn(C)c1Cl)C12CC3CC(CC(C3)C1)C2 (stereo not drawn)", 4.27),
    ("Cn1nc(C(F)F)c(C(=O)N(CC23CC4CC(CC(C4)C2)C3)C2CC2)c1F", 4.49),
    ("COc1nn(C)c(F)c1C(=O)N(CC12CC3CC(CC(C3)C1)C2)C1CC1", 4.04),
    ("CC1CC(C)(C)C2CCCC(NC(=O)c3cn(C)nc3C(F)(F)F)C12 (stereo not drawn)", 4.00),
    ("Cn1nc(C(F)F)c(C(=O)NC23CC4CC(CC(C4)C2)C3)c1Cl", 3.81),
    ("Cn1nc(C(F)F)c(C(=O)NC2C3(C)CCC(C3)C2(C)C)c1F (stereo not drawn)", 3.70),
    ("Cn1cc(C(=O)NC23CC4CC(CC(C4)C2)C3)c(C(F)F)n1", 3.06),
    ("Cn1cc(C(=O)NC2(C#N)CC3CCC2C3)c(C(F)F)n1 (stereo not drawn)", 1.97),
    ("Cn1nc(C(F)F)c(C(=O)NC2(C#N)CC3CCC2C3)c1Cl (stereo not drawn)", 2.34),
    ("Cn1cc(C(=O)N(CC23CC4CC(CC(C4)C2)C3)C2CC2)c(C(F)F)n1", 3.92),
    ("Cn1nc(C(F)F)c(C(=O)N(CC2CC3C=CC2C3)C2CC2)c1F (stereo not drawn)", 3.23),
    ("Cn1nc(C(F)F)c(C(=S)NC2CCCC3CCCCC32)c1F (stereo not drawn)", 4.41),
    ("CN(C(=O)c1c(C(F)F)nn(C)c1F)C1CCC2CCCCC21 (stereo not drawn)", 3.35),
]

###

# Tested on: Alternaria solani
# measurement_protocol: Example C: in vivo preventive test on Alternaria solani (tomato)
# assay_setup: 500 ppm of active ingredient, evaluated 7 days after inoculation
# Protocol: In Vivo Preventive Test on Alternaria solani (Tomato) Solvent: 49 parts by weight of N,N-dimethylformamide Emulsifier: 1 part by weight of alkylarylpolyglycolether To produce a suitable preparation of active compound, 1 part by weight of active compound is mixed with the stated amounts of solvent and emulsifier, and the concentrate is diluted with water to the desired concentration. […]
Collected Efficacy values appear next to each entry.
quantity_kind: Efficacy (%)

# compound, scale_unit, reported
rows = [
    ("Cc1nn(C)c(F)c1C(=O)N(C1CC1)C(C)C1CC2CCC1C2 (stereo not drawn)", "%", 100),
    ("Cn1nc(C(F)F)c(C(=O)N(C2CC2)C2CCC3CCCC3C2)c1Cl (mixture of isomers)", "%", 90),
    ("Cn1nc(C(F)F)c(C(=O)NCC2CCC3CC2C3(C)C)c1Cl (stereo not drawn)", "%", 95),
    ("CC(C1CC2CCC1C2)N(C(=O)c1c(C(F)F)nn(C)c1F)C1CC1 (stereo not drawn)", "%", 95),
    ("CC(C1CC2CCC1C2)N(C(=S)c1c(C(F)F)nn(C)c1F)C1CC1 (stereo not drawn)", "%", 95),
    ("Cn1nc(C(F)F)c(C(=O)NCC23CC4CC(CC(C4)C2)C3)c1Cl", "%", 100),
    ("CC(NC(=O)c1c(C(F)F)nn(C)c1F)C12CC3CC(CC(C3)C1)C2 (stereo not drawn)", "%", 95),
    ("Cn1nc(C(F)F)c(C(=O)N(CC2CC3CCC2C3)C2CC2)c1F (stereo not drawn)", "%", 100),
    ("CC1C(CN(C(=O)c2c(C(F)F)nn(C)c2F)C2CC2)CC2CC1C2(C)C (stereo not drawn)", "%", 95),
]

###

# System: Venturia inaequalis
# measurement_protocol: Example G: in vivo preventive test on Venturia inaequalis (apple scab)
# assay_setup: 100 ppm of active ingredient, evaluated 10 days after inoculation

# compound, subject_of_test, scale_unit, Efficacy
measured = [
    ("CC1CC(C)(C)C2CCCC(NC(=O)c3c(C(F)F)nn(C)c3F)C12 (centres unmarked)", "Venturia inaequalis", "%", 99),
    ("Cn1nc(C(F)F)c(C(=O)N(CC2CC3CCC2C3)C2CC2)c1F (centres unmarked)", "Venturia inaequalis", "%", 100),
    ("CC(C1CC2CCC1C2)N(C(=O)c1cn(C)nc1C(F)F)C1CC1 (centres unmarked)", "Venturia inaequalis", "%", 100),
    ("Cc1nn(C)c(F)c1C(=O)N(C1CC1)C(C)C12CC3CC(CC(C3)C1)C2 (centres unmarked)", "Venturia inaequalis", "%", 100),
    ("CC(N(C(=O)c1cn(C)nc1C(F)F)C1CC1)C12CC3CC(CC(C3)C1)C2 (centres unmarked)", "Venturia inaequalis", "%", 100),
    ("CC(C1CC2CCC1C2)N(C(=O)c1c(C(F)F)nn(C)c1F)C1CC1 (centres unmarked)", "Venturia inaequalis", "%", 100),
    ("CC(C1CC2CCC1C2)N(C(=S)c1c(C(F)F)nn(C)c1F)C1CC1 (centres unmarked)", "Venturia inaequalis", "%", 98),
    ("Cn1nc(C(F)F)c(C(=O)N(C2CC2)C2CCCC3CCCC32)c1F (centres unmarked)", "Venturia inaequalis", "%", 100),
]
